system: Zea mays (ZEAMX); assay: Pre-emergence herbicidal test; format: in vivo; settings: 1000 g/ha, evaluated after 13 days
EXPERIMENTAL_READOUT: percentage damage caused to the plant, five-point scale, ZEAMX

Incoming: Quick one: percentage damage caused to the plant, five-point scale, ZEAMX of CC(C)COC(=O)c1nn(-c2ccc(OC(F)(F)F)cc2)c2cccc(S(C)(=O)=O)c2c1=O [Compound P72] ?
Outgoing: 0 (0=0%)

Incoming: Quick one: percentage damage caused to the plant, five-point scale, ZEAMX of CCCCCCCOC(=O)c1nn(-c2ccc(OC(F)(F)F)cc2)c2cccc(S(C)(=O)=O)c2c1=O [Compound P77] ?
Outgoing: 0 (0=0%)

Next:
Incoming: Quick one: percentage damage caused to the plant, five-point scale, ZEAMX of CS(=O)(=O)c1cc(F)cc2c1c(=O)c(C(=O)O)nn2-c1ccc(OC(F)(F)F)cc1 [Compound P21] ?
Outgoing: 1 (1=10-20%)

====

This section presents compounds with their documented percentage damage caused to the plant, AMARE (five-point scale) values.
test system: Amaranthus retoflexus (AMARE); experiment: Post-emergence herbicidal test; type: in vivo; conditions: 1000 g/ha unless otherwise stated, evaluated after 13 days

Consider the reported percentage damage caused to the plant, AMARE (five-point scale) for these compounds:
Incoming: Quick one: percentage damage caused to the plant, AMARE (five-point scale) of CCOC(=O)c1nn(-c2ccc(OC(F)(F)F)cc2)c2cccc([S+](C)[O-])c2c1=O (centres unmarked) [Compound P28] ?
Outgoing: 1 (1=10-20%)

Incoming: Quick one: percentage damage caused to the plant, AMARE (five-point scale) of C=C(Cl)COC(=O)c1nn(-c2ccc(OC(F)(F)F)cc2)c2cccc(S(C)(=O)=O)c2c1=O [Compound P66] ?
Outgoing: 0 (0=0%)

Next:
Incoming: Quick one: percentage damage caused to the plant, AMARE (five-point scale) of CCOC(=O)c1nn(-c2ccc(OC(F)(F)F)cc2)c2cccc([S+]([O-])C3CC3)c2c1=O (centres unmarked) [Compound P32] ?
Outgoing: 0 (0=0%)

Incoming: Quick one: percentage damage caused to the plant, AMARE (five-point scale) of CCCCCCCCCCCOC(=O)c1nn(-c2ccc(OC(F)(F)F)cc2)c2cccc(S(C)(=O)=O)c2c1=O [Compound P60] ?
Outgoing: 1 (1=10-20%)

Incoming: Quick one: percentage damage caused to the plant, AMARE (five-point scale) of CCCCCCCOC(=O)c1nn(-c2ccc(OC(F)(F)F)cc2)c2cccc(S(C)(=O)=O)c2c1=O [Compound P77] ?
Outgoing: 0 (0=0%)

Incoming: Quick one: percentage damage caused to the plant, AMARE (five-point scale) of COc1cc(S(C)(=O)=O)c2c(=O)c(C(=O)O)nn(-c3ccc(OC(F)(F)F)cc3)c2c1 [Compound P19] ?
Outgoing: 1 (1=10-20%)

Incoming: Quick one: percentage damage caused to the plant, AMARE (five-point scale) of CCOC(=O)c1nn(-c2ccc(OC(F)(F)F)cc2)c2cc(OC)cc(SC)c2c1=O [Compound P57] ?
Outgoing: 0 (0=0%)

Incoming: Quick one: percentage damage caused to the plant, AMARE (five-point scale) of CC(C)(C)CCOC(=O)c1nn(-c2ccc(OC(F)(F)F)cc2)c2cccc(S(C)(=O)=O)c2c1=O [Compound P86] ?
Outgoing: 0 (0=0%)

Incoming: Quick one: percentage damage caused to the plant, AMARE (five-point scale) of CS(=O)(=O)c1cccc2c1c(=O)c(C(=O)O)nn2-c1ccc(OC(F)(F)F)cc1 [Compound P2] ?
Outgoing: 1 (1=10-20%)

Incoming: Quick one: percentage damage caused to the plant, AMARE (five-point scale) of CCOC(=O)c1nn(-c2ccc(OC(F)(F)F)cc2)c2cc(C#N)cc(SC)c2c1=O [Compound P55] ?
Outgoing: 0 (0=0%)

Incoming: Quick one: percentage damage caused to the plant, AMARE (five-point scale) of CCOC(=O)c1nn(-c2ccc(OC(F)(F)F)cc2)c2ccc(OC)c(S(C)(=O)=O)c2c1=O [Compound P49] ?
Outgoing: 0 (0=0%)

Incoming: Quick one: percentage damage caused to the plant, AMARE (five-point scale) of CS(=O)(=O)c1cccc2c1c(=O)c(C(=O)OCCCl)nn2-c1ccc(OC(F)(F)F)cc1 [Compound P61] ?
Outgoing: 0 (0=0%)

The origin of these recorded values is patent US20230250066A1.
